Test system: HGC-27 (Gastric Carcinoma)
Assay: combination Emax (second highest fraction inhibited in the dose matrix, 72 h); higher = more inhibition; extreme values may be limits of the assay
combination Emax by entry:

| Compound | combination Emax |
| --- | --- |
| COc1nnc2ccc(N3CCC(c4ccc(OCCN5CCN(C)C(=O)[C@H]5C)cc4)CC3)nn12 [AZD5153] + Cn1cnc2c(F)c(Nc3ccc(Br)cc3Cl)c(C(=O)NOCCO)cc21 [Selumetinib] (first compound max 1 µM, 7x7, partner max 10 µM) | 0.796 |
| CN(C)CCCOc1ccc(-c2ccc3ncc4c(c3c2)n(C2CCOCC2)c(=O)n4C)cn1 [AZD0156] + CCN(CCO)CCCOc1ccc2c(Nc3cc(CC(=O)Nc4cccc(F)c4)[nH]n3)ncnc2c1 [AZD2811] (first compound max 1 µM, 7x7, partner max 1 µM) | 0.866 |
| Cc1nc(Nc2ncc(C(=O)Nc3c(C)cccc3Cl)s2)cc(N2CCN(CCO)CC2)n1 [Dasatinib] + CC(=O)Nc1cccc(-n2c(=O)n(C3CC3)c(=O)c3c(Nc4ccc(I)cc4F)n(C)c(=O)c(C)c32)c1 [Trametinib] (first compound max 2 µM, 7x7, partner max 1 µM) | 0.726 |
